- Assay details: Single ascending dose
- Assay type: in vivo, human
- Condition info: human, plasma, oral, 160 mg
Reported metric: Cmax
The number alone won't do; follow it with the unit.

// Cmax lookup, key: C=C(C)[C@@H]1CC[C@]2(NCCN3CCS(=O)(=O)CC3)CC[C@]3(C)[C@H](CC[C@@H]4[C@@]5(C)CC=C(C6=CC[C@@](COc7ncccc7C#N)(C(=O)O)CC6)C(C)(C)[C@@H]5CC[C@]43C)[C@@H]12
529 ng/mL

Recorded values, source paper PMC10238757.
